Test system: MDA-MB-435 melanoma
assay explanation: NCI-60 one-dose screen, 48 h (100 = growth as untreated, 0 = no growth, -100 = all killed)
condition set: 10 µM unless noted
About 83,000 compounds went through this panel and 20% of them were active in at least one assay; those are over-represented in the sample as a whole.
Would you kindly list growth for each of these molecules?
Numbers only, in %.

Past entries and their recorded results:
CC[C@H](Nc1ncnc2nc[nH]c12)c1nc2cccc(F)c2c(=O)n1-c1ccccc1; 82.6
CO[C@H]1C[C@@H]2CC[C@@H](C)[C@@](O)(O2)C(=O)C(=O)N2CCCC[C@H]2C(=O)O[C@H]([C@H](C)C[C@@H]2CC[C@@H](OC(=O)C(C)(CO)CO)[C@H](OC)C2)CC(=O)[C@H](C)/C=C(\C)[C@@H](O)[C@@H](OC)C(=O)[C@H](C)C[C@H](C)\C=C/C=C/C=C/1C; 33.1

Respond only with growth recorded for `CCn1c(-c2nonc2N)nc2c(C#CC(C)(C)O)ncc(OC[C@H]3CCCNC3)c21`
75.3

---

Test system: BT-549 breast
assay explanation: NCI-60 one-dose screen, 48 h (100 = growth as untreated, 0 = no growth, -100 = all killed)
condition set: 10 µM unless noted
Compounds without any hit were thinned out: in the full panel of roughly 83,000, 20% have a hit.
We use 30% as the dividing line for growth: on or above the line is 1 (yes), below is 0 (no).

CC(C)c1ccc(/C=N/Nc2nc3ccccc3s2)cc1; 1 (yes)
CCN(CC)CCNc1ccc(N=Nc2cnc3ccccc3c2)c2ccccc12; 0 (no)

Test whether the compound `COc1cc(Nc2ncc(F)c(Nc3ccc4c(n3)NC(=O)C(C)(C)O4)n2)cc(OC)c1OC` records growth of 30% or higher.
1 (yes)

Please tell me: is the compound `CC(C)(O)CC(=O)NCCn1ccc2ncnc(Nc3ccc(Oc4cccc(C(F)(F)F)c4)c(Cl)c3)c21` at or over 30% in terms of growth?
0 (no)

API: above_or_equal(metric=growth, cutoff=30%) for item `CCN(CC)CCOc1ccc(/C(=C(\C)c2ccc(Cl)cc2)c2ccc(Cl)cc2)cc1`
1 (yes)

In plain terms: is recorded growth at least 30% for `COc1ccc(-n2c(=O)c3ccccc3n(Cc3ccc(C(=O)NO)cc3)c2=O)cc1` ?
1 (yes)

Assess whether reported growth for `Nc1nc(Nc2ccccc2)c(C=Nc2ccccc2)c(=O)[nH]1` sits at 30% or higher.
1 (yes)

# bool: growth of O=C1OCC2=C1C(c1cccc(F)c1)c1cc3c(cc1N2CCO)OCCO3 (stereo not given) >= 30%
1 (yes)

---

Tested on: NCI-H226 lung
assay explanation: NCI-60 one-dose screen, 48 h (100 = growth as untreated, 0 = no growth, -100 = all killed)
condition set: 10 µM unless noted
The panel holds about 83,000 compounds, 20% with a hit somewhere; the sample as a whole holds those more often.
# note: exactly 70% is not below, so it is not met; use met for growth strictly under it

Look over these answered cases.
C=CCN(/C=C1/C(=O)O[C@H](COC)[C@@]2(C)C1=C(O)C(=O)C1=C2[C@H](OC(C)=O)C[C@]2(C)C(=O)CC[C@@H]12)CC=C; met
COC[C@@H](C)n1c(C2CCOCC2)nc2c1C1C=C(OC)C(c3c(C)noc3C)=CC1N=C2 (stereo partly drawn); met

Please indicate whether the reported growth of `NC(=O)c1n[nH]n2c1nc(=O)c1c3c(sc12)CCCC3` is strictly below 70%.
not met

Please indicate whether the reported growth of `CCCCN1C(=O)c2cccc3c(-c4ccc5c(c4)ncn5C4CCCCC4)ccc(c23)C1=O` is strictly below 70%.
not met

Regarding COC(=O)C1CCc2sc3ncnc(Nc4cn[nH]c4C(=O)Nc4ccc(CN5CCN(C)CC5)cc4)c3c21 (stereo not drawn) , kindly confirm whether its growth is beneath 70%.
met

Take the compound `Cc1cc(-c2cc(OC(=O)c3ccccc3)ccc2Cl)cc2nnc(Nc3ccc(OCCN4CCCC4)cc3)nc12` and say whether its growth is less than 70%.
not met

Check if growth falls below 70% for `C=CC[n+]1c(/C=C/C=C2\N(C)c3ccccc3C2(C)C)sc2ccc(OC)cc21` .
met

Lab log: compare recorded growth with 70%; is it strictly lower for CC[C@@H]1C(=O)N(C)c2cnc(Nc3ccc(C(=O)NC4CCC(N5CCN(CC6CC6)CC5)CC4)cc3OC)nc2N1C(C)C (stereo partly drawn) ?
met

---

System: RPMI-8226 leukemia
assay explanation: NCI-60 one-dose screen, 48 h
condition set: 10 µM unless noted
The panel holds about 83,000 compounds, 20% with a hit somewhere; the sample as a whole holds those more often. Calls of active or inactive are those of the source. How the source made its calls: active means growth percent below 10; inactive means the rest.
Parameter call: string, one of active, inactive

CC/C(=C(\c1ccc(OCCN2CCCCCCC2)cc1)c1ccc(OC(=O)C2CCCCC2)cc1)c1ccc(Cl)cc1; inactive
C[C@]12O[C@H](C[C@]1(O)CO)n1c3ccccc3c3c4c(c5c6ccccc6n2c5c31)CNC4=O; active
Nc1nc(N)c2nc(-c3cccc(O)c3)c(-c3cccc(O)c3)nc2n1; inactive

Entry `CCCS(=O)(=O)Nc1ccc(F)c(C(=O)c2c[nH]c3ncc(-c4ccc(Cl)cc4)cc23)c1F` : call = ?
inactive

Given `CN(N)c1nc2sc3c(c2c(=O)[nH]1)CCCC3` , state the outcome it received in this test.
inactive

---

Tested on: MALME-3M melanoma
assay explanation: NCI-60 one-dose screen, 48 h (100 = growth as untreated, 0 = no growth, -100 = all killed)
condition set: 10 µM unless noted
Procedure: Cells are grown in 96 well plates and exposed to the test compound for 48 hours. Compounds are tested at a single concentration, which is 10^-5 M for most compounds. The reported endpoint is percent growth (GI% or GIPRCNT), where numbers from 0 - 100% represent growth inhibition, and numbers from -100% - 0 represent cell death. For example, a value of 40 represents 60% growth inhibition. A value of 0 means no net growth occurred over the course of the experiment. […]
About 83,000 compounds went through this panel and 20% of them were active in at least one assay; those are over-represented in the sample as a whole.
Exercise: state measured growth for each of the compounds provided.
Give bare numbers, in %.

Solved cases (2 shown):
Cn1cc(-c2ccc(F)c(C(F)(F)F)c2)nc1C1CCN(c2ncnc3[nH]ncc23)CC1; 76.5
O=C1C=CC2(NN=C(c3ccccc3)N2c2cccc(Cl)c2)C(Cl)=C1 (configuration not stated); 107

Look at each compound and report its growth.
1. CO[C@H]1C[C@@H]2CC[C@@H](C)[C@@](O)(O2)C(=O)C(=O)N2CCCC[C@H]2C(=O)O[C@H]([C@H](C)C[C@@H]2CC[C@@H](OP(C)(C)=O)[C@H](OC)C2)CC(=O)[C@H](C)/C=C(\C)[C@@H](O)[C@@H](OC)C(=O)[C@H](C)C[C@H](C)\C=C/C=C/C=C/1C
2. COC(=O)[C@@H](OC)[C@@H]1Cc2cc3cc(OC4CC(OC5CC(O)C(O)C(C)O5)C(O)C(C)O4)c(C)c(O)c3c(O)c2C(=O)[C@H]1OC1CC(OC2CC(OC3CC(C)(O)C(O)C(C)O3)C(O)C(C)O2)C(O)C(C)O1 (some centres not stated)
3. Cn1cnc2c(F)c(Nc3ccc(Br)cc3F)c(C(=O)NOCCO)cc21
4. COc1cc2c3c(c1)nc(C)n3CCC2
5. CN(c1ncccc1CNc1nc(Nc2ccc3c(c2)CC(=O)N3)ncc1C(F)(F)F)S(C)(=O)=O

1. 40.4
2. -58
3. -2.35
4. 110
5. -14.4

---

Test system: NCI-H460 lung
assay explanation: NCI-60 one-dose screen, 48 h (100 = growth as untreated, 0 = no growth, -100 = all killed)
condition set: 10 µM unless noted
Method: Growth inhibition of the NCI-H460 human Non-Small Cell Lung tumor cell line is measured as a screen for anti-cancer activity. Cells are grown in 96 well plates and exposed to the test compound for 48 hours. Compounds are tested at a single concentration, which is 10^-5 M for most compounds. The reported endpoint is percent growth (GI% or GIPRCNT), where numbers from 0 - 100% represent growth inhibition, and numbers from -100% - 0 represent cell death. […]
The panel holds about 83,000 compounds, 20% with a hit somewhere; the sample as a whole holds those more often.
quantity: growth (%)
Give bare numbers, in %.

// below: answered compounds
Cc1cc(N(CCNc2ccnc3cc(Cl)ccc23)Cc2ccc3c(c2)OCO3)nc(N2CCN(C)CC2)n1; 18.2
CCN(CC)CCNc1ccc(N=Nc2cnc3ccccc3c2)c2ccccc12; -78.8
Cc1ccc(NC(=O)c2ccc(CN3CCN(C)CC3)cc2)cc1Nc1nc(-c2cccnc2)cs1; 40.3
CC(C)NC[C@@H](C(=O)N1CCN(c2ncnc3c2[C@H](C)C[C@H]3O)CC1)c1ccc(Cl)cc1; 29.3
CN1CCN(CC(=O)Nc2ccc(-c3nc4ccccc4s3)cc2)CC1; 84.7

Give measured growth for every item shown.
1. C=C1[C@@H](O)C[C@H]2C(C)(C)C[C@H](Cl)C[C@]2(C)[C@H]1C[C@H](O)[C@H]1CC(=O)NC1=O
2. CSC1=C(N)C(=O)c2[nH]cc(CO)c2C1=N
3. CC1(C=O)NC(=O)NC1=O (stereo not given)
4. Fc1ccc(NCc2cn(-c3ccccc3)nc2-c2ccc(OCc3ccccc3)cc2)cc1Cl

-11.5
-59.2
108
110

Provide growth values for the following items, in order.
1. CCN(CCCOc1ccc2c(Nc3cc(CC(=O)Nc4cccc(F)c4)[nH]n3)ncnc2c1)CCOP(=O)(O)O
2. Cc1cc(N2CCOCC2)nc(N(CCNc2ccnc3cc(Cl)ccc23)Cc2cccs2)n1
3. CCCCOc1nc2cc(Cl)ccc2cc1/C=C/c1cc(/C=C/c2cc3ccc(Cl)cc3nc2OCCCC)n(-c2ccccc2)n1
4. CCN1CCN(c2cc(C)nc(N(CCCNc3ccnc4cc(Cl)ccc34)Cc3ccc4c(c3)OCO4)n2)CC1
5. FC(F)c1nc2ccccc2n1-c1nc(N2CCOCC2)nc(N2CCOCC2)n1
6. COC(=O)c1[nH]cnc1/N=N/N(C)CCO

45
7.16
98.3
7.01
7.27
105

For each entry beneath this line, provide reported growth.
1. CNC(=O)c1cc(Oc2cccc3nc(Nc4ccc(Cl)c(F)c4)ccc23)ccn1
2. COc1cc(C(=O)NNC(=O)c2ccc(NC(=O)CCl)cc2)cc(OC)c1OC
3. O=C(NOCCO)c1ccc2cncn2c1Nc1ccc(I)cc1F
4. COc1cc2c(Oc3ccc4[nH]c(C)cc4c3F)ncnc2cc1OCCCN1CCCC1
5. C=CC(=O)N1CCC[C@H](n2c(=O)n(-c3ccc(Oc4ccccc4)cc3)c3c(N)ncnc32)C1

[60.6, 99.5, 74.7, 96.7, 96.2]

All values here come from PubChem BioAssay (NCI).
